Target: von Willebrand factor full length (Homo sapiens, UniProt P04275 SEQ:764-2813)
Assay: filter; 29% bound at 100 nM vWF
Conditions: tags: Calbiochem 681300; label: 5'-32P
Experimental: For KD determination, chemically synthesized aptamers were purified using denaturing polyacrylamide gel electrophoresis, 5′end labeled with γ-³²P ATP and were tested for direct binding to full length human vWF (Calbiochem Cat.# 681300, La Jolla, Calif.). […] KD values were calculated by fitting the equation y=(max/(1+K/protein))+yint using KaleidaGraph (KaleidaGraph v. 3.51, Synergy Software).
valueKind: Kd (nM)
Answers are plain numbers, in nM.

Measured Kd, GGCGUGCAGUGCCUUCGGCCGTGCGGTGCCUCCGUCACGCC (mixed, 2'-OMe/deoxy composite with PS 5' of the deoxy residues as printed in Table 22, 3'-idT) [ARC1345] : 12.1
